From: paper PMC6445195

Target: BChE (Homo sapiens)
Sequence (P06276 29-602): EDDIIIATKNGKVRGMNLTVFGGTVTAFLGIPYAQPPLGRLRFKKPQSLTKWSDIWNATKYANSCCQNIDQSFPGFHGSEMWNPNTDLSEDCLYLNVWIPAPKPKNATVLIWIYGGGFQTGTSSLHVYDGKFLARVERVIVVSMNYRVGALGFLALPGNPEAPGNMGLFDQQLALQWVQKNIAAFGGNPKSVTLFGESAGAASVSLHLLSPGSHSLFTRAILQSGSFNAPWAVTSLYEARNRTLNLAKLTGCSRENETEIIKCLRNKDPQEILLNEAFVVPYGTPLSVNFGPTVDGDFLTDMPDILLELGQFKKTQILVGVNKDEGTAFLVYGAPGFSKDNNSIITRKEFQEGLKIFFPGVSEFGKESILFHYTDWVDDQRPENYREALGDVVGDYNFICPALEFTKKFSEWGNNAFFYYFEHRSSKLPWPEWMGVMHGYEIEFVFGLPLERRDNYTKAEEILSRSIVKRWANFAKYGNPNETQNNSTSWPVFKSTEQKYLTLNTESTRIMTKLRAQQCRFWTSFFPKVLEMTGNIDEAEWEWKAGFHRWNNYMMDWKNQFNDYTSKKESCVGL
Experiment: biochemical
Format: biochemical
Record form. Attribute: pIC50. Fill in for each entry.
One number for each entry, as −log10 of the molar value.

Examples with their reported pIC50 follow.
molecule="CCN(CC)Cn1c(=S)sc2ccccc21 [Compound 5]" recordedmeasurement=7.08
molecule="CC(C)OCn1c(=S)oc2ccccc21 [Compound 13, N-isopropoxymethylbenzoxazoline-2-thione]" recordedmeasurement=7.08
molecule="COCNc1nccs1 [Compound 17, 2-(methoxy)methylaminothiazole]" recordedmeasurement=6.84
molecule="CC(C)OCNc1nccs1 [Compound 16, 2-isopropoxymethylaminothiazole]" recordedmeasurement=6.90
molecule="COCCOCn1c(=S)oc2ccccc21 [Compound 14]" recordedmeasurement=7.17
molecule="S=c1sc2ccccc2n1CN1CCCCC1 [Compound 4]" recordedmeasurement=7.09

Attention now shifts to the item below.
response.value for CCN(CC)Cn1c(=S)oc2ccccc21 [Compound 6] (field: pIC50) = 7.10
